target-entity: T1, Human C5 (human, UniProt P01031 19-1676)
T1 construct: The natural protein has a beta and an alpha chain; also called complement factor 5; complement component 5
assay-comment: SPR, mAb captured by anti-hFc, 25C
parameter-measured: 100 nM Human C5 Bound (RU)
Please respond with the number in RU and leave the unit unwritten.

Prompt line: Tell me 100 nM Human C5 Bound (RU) reported for H4H12167P (antibody, human IgG4, V domains shown) VH: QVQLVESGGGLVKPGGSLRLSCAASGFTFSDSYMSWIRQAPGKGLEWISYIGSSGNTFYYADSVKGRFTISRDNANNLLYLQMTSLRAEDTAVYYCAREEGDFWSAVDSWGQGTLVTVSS VL: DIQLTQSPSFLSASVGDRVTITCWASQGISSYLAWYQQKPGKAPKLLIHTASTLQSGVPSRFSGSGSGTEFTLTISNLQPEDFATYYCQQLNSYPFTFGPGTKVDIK
Response line: 116

Prompt line: State, in one line, measured 100 nM Human C5 Bound (RU) of H4H12175P (antibody, human IgG4, V domains shown) VH: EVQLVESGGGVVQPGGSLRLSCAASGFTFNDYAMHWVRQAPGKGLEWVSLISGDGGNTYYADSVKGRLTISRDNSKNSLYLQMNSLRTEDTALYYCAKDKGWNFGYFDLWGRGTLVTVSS VL: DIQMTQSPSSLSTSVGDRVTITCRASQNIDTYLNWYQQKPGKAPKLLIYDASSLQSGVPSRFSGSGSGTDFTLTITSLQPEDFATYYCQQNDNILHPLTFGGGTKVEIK
Response line: 100

Prompt line: Give the reported 100 nM Human C5 Bound (RU) for this binder. H4H12166P5 (antibody, human IgG4, V domains shown, human IgG4 Fc with S108P hinge mutation) VH: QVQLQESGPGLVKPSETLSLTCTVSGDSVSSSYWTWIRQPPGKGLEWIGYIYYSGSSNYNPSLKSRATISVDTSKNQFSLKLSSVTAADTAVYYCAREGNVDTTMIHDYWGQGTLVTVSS VL: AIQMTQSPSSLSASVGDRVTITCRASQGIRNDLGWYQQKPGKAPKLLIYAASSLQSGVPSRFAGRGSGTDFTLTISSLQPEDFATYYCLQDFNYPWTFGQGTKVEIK
Response line: 110

Prompt line: Kindly indicate its recorded 100 nM Human C5 Bound (RU). Item: H4H12169P (antibody, human IgG4, V domains shown) VH: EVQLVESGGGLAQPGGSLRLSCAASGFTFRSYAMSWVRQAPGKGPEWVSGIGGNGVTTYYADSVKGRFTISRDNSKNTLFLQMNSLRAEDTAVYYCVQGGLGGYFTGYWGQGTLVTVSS VL: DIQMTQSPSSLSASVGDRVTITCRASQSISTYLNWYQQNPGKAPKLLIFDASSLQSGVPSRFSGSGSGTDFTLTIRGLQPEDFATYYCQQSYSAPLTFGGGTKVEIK
Response line: 18

Prompt line: Annotate the binder H4H12166P9 (antibody, human IgG4, V domains shown, human IgG4 Fc with S108P hinge mutation) VH: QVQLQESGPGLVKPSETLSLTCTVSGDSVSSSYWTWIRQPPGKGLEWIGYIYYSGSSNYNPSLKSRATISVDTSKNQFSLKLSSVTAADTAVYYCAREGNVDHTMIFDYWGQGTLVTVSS VL: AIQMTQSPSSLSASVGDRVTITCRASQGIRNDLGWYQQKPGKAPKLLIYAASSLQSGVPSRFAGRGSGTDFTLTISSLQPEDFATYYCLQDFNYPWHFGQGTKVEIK with its measured 100 nM Human C5 Bound (RU).
Response line: 100
